Reported EC50 by item:
# tested_on: FSHR (Homo sapiens, UniProt P23945)
# Construct: expressed in transfected cells; host or cells: CHO (Cho-FSHR-LUC-1-1-43)
# Sequence (P23945 18-695): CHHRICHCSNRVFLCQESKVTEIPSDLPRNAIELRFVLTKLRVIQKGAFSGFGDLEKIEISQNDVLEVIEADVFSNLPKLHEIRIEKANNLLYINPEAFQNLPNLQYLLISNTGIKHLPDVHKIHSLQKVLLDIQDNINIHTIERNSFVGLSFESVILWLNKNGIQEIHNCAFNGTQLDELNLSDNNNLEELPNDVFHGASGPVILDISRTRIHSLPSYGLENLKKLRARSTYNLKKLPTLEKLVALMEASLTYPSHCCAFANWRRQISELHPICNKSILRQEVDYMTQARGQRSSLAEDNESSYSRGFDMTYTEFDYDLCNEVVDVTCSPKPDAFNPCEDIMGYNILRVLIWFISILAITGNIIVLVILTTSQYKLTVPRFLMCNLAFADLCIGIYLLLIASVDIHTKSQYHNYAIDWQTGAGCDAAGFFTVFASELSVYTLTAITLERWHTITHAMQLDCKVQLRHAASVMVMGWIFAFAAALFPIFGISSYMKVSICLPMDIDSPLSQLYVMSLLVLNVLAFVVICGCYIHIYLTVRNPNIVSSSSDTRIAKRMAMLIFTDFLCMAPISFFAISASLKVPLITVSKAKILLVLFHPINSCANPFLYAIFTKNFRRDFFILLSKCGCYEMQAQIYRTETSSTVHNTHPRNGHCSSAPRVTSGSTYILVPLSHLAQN
# Sequence (P01215 25-116 partner): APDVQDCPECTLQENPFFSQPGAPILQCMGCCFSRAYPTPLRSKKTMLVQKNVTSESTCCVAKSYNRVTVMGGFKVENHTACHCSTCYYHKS
# Sequence (P01225 19-129 partner): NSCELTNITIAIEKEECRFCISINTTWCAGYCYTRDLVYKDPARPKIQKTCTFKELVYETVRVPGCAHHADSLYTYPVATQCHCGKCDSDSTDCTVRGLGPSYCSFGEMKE
# method: EC50 of cyclic AMP production in CHO FSHR cells + EC20 FSH (Assay A)
# Type: cell-based
# study_conditions: CHO FSHR cells + EC20 FSH; Table 2; read-out: Assay A EC50 of cyclic AMP production

compound: Cc1ccccc1N1CCN(c2ccc(C(=O)NC3CCCC(O)C3)cc2NC(=O)c2coc(C3CC3)n2)CC1 (stereo not shown)
recorded_value: < 100 nM
--
compound: CCN(C)Cc1cccc(CNC(=O)c2ccc(N3CCN(c4ccccc4C)CC3)c(NC(=O)c3ccc(C)o3)c2)c1
recorded_value: 1000 to 10000 nM
--
compound: Cc1ccccc1N1CCN(c2ccc(C(=O)NCCCc3ccc(O)cc3)cc2NC(=O)c2ccco2)CC1
recorded_value: < 100 nM
--
compound: Cc1ccccc1N1CCN(c2ccc(C(=O)NCCc3cn(C)cn3)cc2N(C(=O)C(F)(F)F)C(=O)C(F)(F)F)CC1
recorded_value: 1000 to 10000 nM

[Q] Given `Cc1ccccc1N1CCN(c2ccc(C(=O)NC3CCN(S(C)(=O)=O)CC3)cc2NC(=O)c2coc(C3CC3)n2)CC1` , state its recorded EC50.
[A] 100 to 1000 nM

[Q] So what does the record say about EC50 for `Cc1ccccc1N1CCN(c2ccc(C(=O)NCCN(C)C3CCCC3)cc2NC(=O)c2ccco2)CC1` ?
[A] 100 to 1000 nM

[Q] # EC50 lookup, item `Cc1ccccc1N1CCN(c2ccc(C(=O)NCc3cccc(CN4CCCC4)c3)cc2NC(=O)c2ccco2)CC1`
[A] 100 to 1000 nM

----------
# tested_on: FSHR (Homo sapiens, UniProt P23945)
# Construct: expressed in transfected cells; host or cells: CHO (Cho-FSHR-LUC-1-1-43)
# method: EC50 of cyclic AMP production in CHO FSHR cells + EC20 FSH (Assay A)
# Format: cell-based
# study_conditions: 1 h; 5 μM; effect relative to maximum response of the FSH standard; Table 1
measured_parameter: activation at 5 µM (%)

Worked set:
smiles_data: Cc1ccccc1N1CCN(c2ccc(C(=O)NCCCN3CCCC3=O)cc2NC(=O)c2ccc(C(F)(F)F)cc2)CC1
unit_descriptor: %
activation at 5 µM: 40

smiles_data: Cc1ccccc1N1CCN(c2ccc(C(=O)NCCCN3CCCC3=O)cc2NC(=O)c2cccc(N(C)C)c2)CC1
unit_descriptor: %
activation at 5 µM: 47

smiles_data: Cc1ccccc1N1CCN(c2ccc(C(=O)N3CCN(C(=O)OC(C)(C)C)CC3)cc2NC(=O)c2ccco2)CC1
unit_descriptor: %
activation at 5 µM: 7

[1] CCNc1nc(C)c(C(=O)Nc2cc(C(=O)NCCCN3CCCC3=O)ccc2N2CCN(c3ccccc3C)CC2)s1
[2] O=C(NCCCN1CCCC1=O)c1ccc(N2CCN(c3ccccn3)CC2)c(NC(=O)c2ccco2)c1
[Q] I would appreciate it if you could say which entry, 1 or 2 , has the lower activation at 5 µM value. Lab note: record the label of whichever item you select.
[A] 1

[1] Cc1ccc(C(=O)Nc2cc(C(=O)NCCCCCCNC(=O)OC(C)(C)C)ccc2N2CCN(c3ccccc3C)CC2)o1
[2] Cc1ccccc1N1CCN(c2ccc(C(=O)NCCCN3CCCC3=O)cc2NC(=O)c2cccc3ccccc23)CC1
[Q] Field: lower activation at 5 µM | Options: 1 / 2 Provide the label of your selected option as the answer.
[A] 1

----------
# tested_on: FSHR (Homo sapiens, UniProt P23945)
# Construct: expressed in transfected cells; host or cells: CHO (Cho-FSHR-LUC-1-1-43)
# method: EC50 of cyclic AMP production in CHO FSHR cells + EC20 FSH (Assay A)
# Assay type: cell-based
pEC50: −log10 of the molar value.
measured_parameter: pEC50

[Q] # query: pEC50 of entry `Cc1ccccc1N1CCN(c2ccc(C(=O)NCCCN3CCCC3=O)cc2NC(=O)c2ccc(Br)o2)CC1`
[A] 6.00 to 7.00

----------
# tested_on: FSHR (Homo sapiens)
# Construct: expressed in transfected cells; host or cells: CHO (Cho-FSHR-LUC-1-1-43)
# method: EC50 of cyclic AMP production in CHO FSHR cells + EC20 FSH (Assay A)
# Assay type: cell-based
# study_conditions: CHO FSHR cells + EC20 FSH; Table 1; read-out: Assay A EC50 of cyclic AMP production
pEC50: −log10 of the molar value.
measured_parameter: pEC50

The examples below pair each entry with its known result.
smiles_data: Cc1ccccc1N1CCN(c2ccc(C(=O)NCc3ccc(Cl)cc3)cc2NC(=O)c2coc(C3CC3)n2)CC1
recorded_value: 5.00 to 6.00

smiles_data: COc1ccccc1N1CCN(c2ccc(C(=O)NCCCN3CCCC3=O)cc2NC(=O)c2ccc(C)o2)CC1
recorded_value: 5.00 to 6.00

smiles_data: Cc1ccccc1N1CCN(c2ccc(C(=O)NCCCN3CCOC3=O)cc2NC(=O)c2ccco2)CC1
recorded_value: 6.00 to 7.00

[Q] What does the record list as pEC50 for `Cc1ccccc1N1CCN(c2ccc(C(=O)NCCCN3CCCC3=O)cc2NC(=O)c2ccc[nH]2)CC1` ?
[A] 5.00 to 6.00

[Q] Entry `Cc1ccc(C(=O)Nc2cc(C(=O)NCCCN3CCCC3=O)ccc2N2CCCN(c3ccccc3C)CC2)o1` has what pEC50?
[A] 5.00 to 6.00

[Q] Item under review: `Cc1ccccc1N1CCN(c2ccc(C(=O)NCc3cccc4ccccc34)cc2NC(=O)c2ccco2)CC1` . Reported pEC50?
[A] < 5.00

[Q] Which pEC50 is reported for this molecule? `COc1cccc(CNC(=O)c2ccc(N3CCN(c4ccccc4C)CC3)c(NC(=O)c3ccco3)c2)c1`
[A] 6.00 to 7.00

----------
# tested_on: FSHR (Homo sapiens)
# Construct: expressed in transfected cells; host or cells: CHO (Cho-FSHR-LUC-1-1-43)
# method: EC50 of cyclic AMP production in CHO FSHR cells + EC20 FSH (Assay A)
# Type: cell-based
# study_conditions: CHO FSHR cells + EC20 FSH; Table 2; read-out: Assay A EC50 of cyclic AMP production
measured_parameter: EC50

compound: C=CCNC(=O)NCCCNC(=O)c1ccc(N2CCN(c3ccccc3C)CC2)c(NC(=O)c2ccco2)c1
measured_parameter: EC50
recorded_value: < 0.1 µM

[Q] Any idea what its EC50 is? The compound is `Cc1ccccc1N1CCN(c2ccc(C(=O)NCCCN3CCCC3=O)cc2NC(=O)c2coc(C3CC3)n2)CC1`
[A] 0.1 to 1 µM

[Q] I would be grateful if you could share the reported EC50 for `Cc1ccccc1N1CCN(c2ccc(C(=O)NC3(c4cccc(C(=O)O)c4)CC3)cc2NC(=O)c2ccco2)CC1` .
[A] 1 to 10 µM

[Q] Would you kindly share the measured EC50 for `Cc1ccccc1N1CCN(c2ccc(C(=O)NCCCN3CCCC3=O)cc2NC(=O)c2cncn2C)CC1` ?
[A] > 10 µM

[Q] What does the record list as EC50 for `Cc1ccccc1N1CCN(c2ccc(C(=O)NCc3cccc(CN(C)C)c3)cc2NC(=O)c2ccco2)CC1` ?
[A] 0.1 to 1 µM

[Q] Could you share which EC50 value was measured for `Cc1ccccc1N1CCN(c2ccc(C(=O)N[C@@H](CO)c3ccccc3)cc2NC(=O)c2coc(C3CC3)n2)CC1` ?
[A] 1 to 10 µM

[Q] Which EC50 reading was recorded for the compound `Cc1ccccc1N1CCN(c2ccc(C(=O)NCCCN)cc2NC(=O)c2coc(C3CC3)n2)CC1` ?
[A] 1 to 10 µM

[Q] Suppose we examine the compound `Cc1ccccc1N1CCN(c2ccc(C(=O)NCC[C@H]3COC(C)(C)O3)cc2NC(=O)c2coc(C3CC3)n2)CC1` ; what EC50 value has been reported?
[A] 0.1 to 1 µM

[Q] Need EC50, item `CCCNC(=O)NCCCNC(=O)c1ccc(N2CCN(c3ccccc3C)CC2)c(NC(=O)c2ccco2)c1`
[A] < 0.1 µM

[Q] # input compound: Cc1ccccc1N1CCN(c2ccc(C(=O)NC(C)CCN3CCCC3=O)cc2NC(=O)c2coc(C3CC3)n2)CC1 (stereo not shown) ; wanted: its EC50
[A] 0.1 to 1 µM

----------
# tested_on: FSHR (Homo sapiens)
# Construct: expressed in transfected cells; host or cells: CHO (Cho-FSHR-LUC-1-1-43)
# method: EC50 of cyclic AMP production in CHO FSHR cells + EC20 FSH (Assay A)
# Format: cell-based
# study_conditions: CHO FSHR cells + EC20 FSH; Table 2; read-out: Assay A EC50 of cyclic AMP production
pEC50: −log10 of the molar value.
measured_parameter: pEC50

compound: COCc1cccc(CNC(=O)c2ccc(N3CCN(c4ccccc4C)CC3)c(NC(=O)c3ccco3)c2)c1
recorded_value: 6.00 to 7.00

compound: Cc1ccccc1N1CCN(c2ccc(C(=O)NCCCNC(=O)C3CCOCC3)cc2NC(=O)c2coc(C3CC3)n2)CC1
recorded_value: > 7.00

compound: Cc1ccccc1N1CCN(c2ccc(C(=O)NCCCNC(=O)OC(C)(C)C)cc2NC(=O)c2coc(C3CC3)n2)CC1
recorded_value: 6.00 to 7.00

compound: Cc1ccccc1N1CCN(c2ccc(C(=O)NCCCN3CCCCC3=O)cc2NC(=O)c2ccco2)CC1
recorded_value: 6.00 to 7.00

compound: Cc1ccccc1N1CCN(c2ccc(C(=O)NCCCN3C(=O)C(=O)N(C)C3=O)cc2NC(=O)c2ccco2)CC1
recorded_value: 6.00 to 7.00

[Q] GET /values?readout=pEC50&item= `CCc1ccccc1N1CCN(c2ccc(C(=O)NCCCN3CCCC3=O)cc2NC(=O)c2ccc(C)o2)CC1`
[A] 6.00 to 7.00

[Q] Item under review: `CCn1nc(C2CC2)cc1C(=O)Nc1cc(C(=O)NCCCN2CCCC2=O)ccc1N1CCN(c2ccccc2C)CC1` . Reported pEC50?
[A] 5.00 to 6.00

[Q] Which pEC50 value belongs to `Cc1nc(C(=O)Nc2cc(C(=O)NCCc3cnc[nH]3)ccc2N2CCN(c3ccccc3C)CC2)cs1` ?
[A] 5.00 to 6.00

[Q] What value of pEC50 has been reported for the following compound? `Cc1ccccc1N1CCN(c2ccc(C(=O)NCCCNC(=O)NCC3CCCCC3)cc2NC(=O)c2ccco2)CC1`
[A] 5.00 to 6.00

[Q] Sample `Cc1noc(CCCNC(=O)c2ccc(N3CCN(c4ccccc4C)CC3)c(NC(=O)c3coc(C4CC4)n3)c2)n1` — what was its pEC50?
[A] 6.00 to 7.00

[Q] # lookup: pEC50 of `Cc1ccccc1N1CCN(c2ccc(C(=O)NCCCNC(=O)Nc3ccc(C(F)(F)F)cc3)cc2NC(=O)c2coc(C3CC3)n2)CC1`
[A] < 5.00

[Q] # get_value(readout='pEC50', item= `Cc1ccccc1N1CCN(c2ccc(C(=O)Nc3cccc(N4CCCC4=O)c3)cc2NC(=O)c2ccco2)CC1` )
[A] 5.00 to 6.00

[Q] pEC50 for `Cc1ccccc1N1CCN(c2ccc(C(=O)NCc3cccc(CN(C)C(=O)OC(C)(C)C)c3)cc2NC(=O)c2ccco2)CC1` ?
[A] < 5.00

[Q] Quick check: pEC50 of `Cc1ncc(C(=O)Nc2cc(C(=O)NCCCN3CCCC3=O)ccc2N2CCN(c3ccccc3C)CC2)o1` ?
[A] 6.00 to 7.00

[Q] Any idea what its pEC50 is? The compound is `Cc1ccccc1N1CCN(c2ccc(C(=O)NOC[C@H](O)CO)cc2NC(=O)c2coc(C3CC3)n2)CC1`
[A] 6.00 to 7.00

[Q] Field request: pEC50 | item: CCC(C)NC(=O)NCCCNC(=O)c1ccc(N2CCN(c3ccccc3C)CC2)c(NC(=O)c2ccco2)c1 (stereo not shown)
[A] 6.00 to 7.00

[Q] Query: pEC50; subject: `Cn1ccnc1N1CCN(c2ccc(C(=O)NCCCN3CCOC3=O)cc2NC(=O)c2coc(C3CC3)n2)CC1`
[A] 5.00 to 6.00

[Q] Dear colleague, I am looking for the recorded pEC50 of the following compound: `CN(C)c1ccc(N2CCN(c3ccc(C(=O)NCCCN4CCCC4=O)cc3NC(=O)c3coc(C4CC4)n3)CC2)nn1`
[A] 6.00 to 7.00
